Tested system: Serine/threonine-protein kinase PLK1 (Homo sapiens)
Procedure summary: qHTS for Inhibitors of PLK1-PDB (polo-like kinase 1 - polo-box domain): Primary Screen; note: series mostly up to about 57 µM; % is set by controls: 0 for no effect and ±100 for the full control effect; nearly all actives have a fitted effect of over 65% in size
Reported conditions: Plk1 PBD binding of FITC phosphopeptide, fluorescence polarization
About 10,000 (2.8%) of roughly 360,000 compounds were called active. Inconclusive results (about 4%) are left out. What follows is part of a selection rich in actives, with near analogues and random picks from the rest.
Property: max response, negative = inhibition (%)
The reply should be a number in %, with the unit left off.

// below: answered compounds
{"columns": ["Compound", "Units", "Observed result"],
 "data": [
  ["C=CCNC(=S)N1CCc2[nH]c3ccccc3c2C1", "%", -8.32],
  ["COc1cccc(OCC(=O)NCCS(=O)(=O)N2CCN(c3ccccc3)CC2)c1", "%", -0.74],
  ["CC(=O)Nc1ccc2c3c(ccc([N+](=O)[O-])c13)CC2", "%", -1.77],
  ["CCOC(=O)C1CCCN(C(=O)c2cccc3ccccc23)CC1 (stereo not given)", "%", -9.5],
  ["COC(=O)c1ccc(N2CCOCC2)c(NC(=O)c2ccc3c(c2)OCCO3)c1", "%", 0.435]
]}

Record request: max response, negative = inhibition value, item COc1ccc(CC(N)c2csc(NC(=O)Cc3ccccc3)n2)cc1 (stereo not given) -4.52

Record request: max response, negative = inhibition value, item `C[C@H](CO)N1C[C@H](C)[C@H](CN(C)C(=O)c2ccncc2)OCc2ccccc2-c2c(n(C)c3ccccc23)C1=O` -5.78

Record request: max response, negative = inhibition value, item `CCOc1ccc(CCN2C(=S)N([C@@H](CC(C)C)CN3CCC[C@@H]3CN3C(=S)NC[C@@H]3Cc3ccc(O)cc3)C[C@@H]2CC(C)C)cc1` 5.19

Record request: max response, negative = inhibition value, item O=C1c2ccccc2C(c2nc3ccccc3[nH]2)N1c1ccccc1 (stereo not given) 3.28

Record request: max response, negative = inhibition value, item `Cc1sc2ccccc2c1CNC[C@H]1O[C@@H](n2ccc(=O)[nH]c2=O)[C@H](O)[C@@H]1O` 2.69

Record request: max response, negative = inhibition value, item CC1(C(=O)NS(=O)(=O)c2ccccc2)CCN1C(=O)c1ccccc1 (stereo not given) -4.3

Record request: max response, negative = inhibition value, item O=S1(=O)CC(N2CCC(Cc3ccccc3)CC2)CN1Cc1ccccc1 (stereo not given) -4.73

Record request: max response, negative = inhibition value, item CCC(C)C(CO)NC(=O)/C=C/[C@H]1O[C@@H](n2cnc3c(NC(=O)c4ccccc4)ncnc32)[C@H](O)[C@@H]1O (stereo not given in full) -12
